Tested on: Trichoderma virens ATCC 9645
Experiment: growth yield (OD600) relative to untreated control; higher = less growth inhibition
Conditions: compound concentration: 100 uM; 40 h
Structures can show the parent of a compound that is named as a salt. In all, about 1,300 compounds went through this assay and about 75 (6%) showed an effect of 50% or more. Shown is part of a subset that was picked to be rich in strong results.
Entries annotated with measured growth yield
Supply the numeric figure in %, leaving out any unit text.

Check out these entries, answers already filled in.
1. CCCc1nc(C(C)(C)O)c(C(=O)O)n1Cc1ccc(-c2ccccc2-c2nnn[nH]2)cc1	100
2. O=C(NCCO[N+](=O)[O-])c1cccnc1	103
3. CCOC(=O)O[C@]1(C(=O)COC(=O)CC)CC[C@H]2[C@@H]3CCC4=CC(=O)C=C[C@]4(C)[C@H]3[C@@H](O)C[C@@]21C [Prednicarbate]	118
4. CCOC(=O)[C@H](CCc1ccccc1)N[C@H]1CCc2ccccc2N(CC(=O)O)C1=O [Benazepril hydrochloride]	104
5. CCN(CC)CCN[C@@H](C(=O)OCCC(C)C)c1ccccc1 [Camylofine chlorhydrate]	104

Form field: reported growth yield of COc1ccc(-c2cc(=S)ss2)cc1
76.4

Look up growth yield for this molecule: CC(=O)Oc1cc(C(F)(F)F)ccc1C(=O)O
94.5

Any idea what growth yield was measured for CC(C)(C)NC[C@@H](O)COc1cccc2c1CCCC2=O [(+) -Levobunolol hydrochloride] ?
100

---

System: Trichoderma virens ATCC 9645
Assay: growth yield (OD600) relative to untreated control; higher = less growth inhibition
Settings: compound concentration: 100 uM; 40 h
Structures can show the parent of a compound that is named as a salt. Screen size: about 1,300 compounds; about 75 (6%) showed an effect of 50% or more. For the sample, strong results were picked, then their nearest neighbours and some compounds at random.
Recorded measurements of growth yield, one per entry
# unit: % | format: bare number

Recorded growth yield, per entry:
1. COC(=O)[C@H]1[C@H]2C[C@@H]3c4[nH]c5cc(OC)ccc5c4CCN3C[C@H]2C[C@@H](OC(=O)c2cc(OC)c(OC)c(OC)c2)[C@@H]1OC [Reserpine]	107
2. COc1cc2nc(N(C)CCCNC(=O)C3CCCO3)nc(N)c2cc1OC (stereo not drawn) [Alfuzosin hydrochloride]	105
3. O=C1c2c(O)ccc(O)c2C(=O)c2c(NCCNCCO)ccc(NCCNCCO)c21 [Mitoxantrone dihydrochloride]	2.86
4. NCc1ccc(S(N)(=O)=O)cc1 [Mafenide hydrochloride]	107
5. c1ccc(-c2ccc(C(c3ccccc3)n3ccnc3)cc2)cc1 (stereo not drawn) [Bifonazole]	2.86

Reported growth yield for Oc1c(I)cc(Cl)c2cccnc12 [Clioquinol] : what is it?
18.3

Look up growth yield for this compound: N#Cc1ccc(C(c2ccc(C#N)cc2)n2cncn2)cc1 [Letrozole]
103

What growth yield value was documented for this compound, O=C1c2cccc(O)c2C(=O)c2c(O)cccc21 [1,8-Dihydroxyanthraquinone] ?
85.8

---

Test system: Trichoderma virens ATCC 9645
Experiment: growth yield (OD600) relative to untreated control; higher = less growth inhibition
Conditions: compound concentration: 100 uM; 40 h
Where a name gives a salt, the structure may show the parent alone. Among all 1,300 compounds or so, about 75 (6%) showed an effect of 50% or more. The entries come from a sample that favours strong results as a whole.
Readout name: growth yield (%)
Your answer is read as %, so omit the unit and give the number.

Known growth yield results, listed for orientation:
1) N=C(N)c1ccc(OCCCCCOc2ccc(C(=N)N)cc2)cc1 [Pentamidine isethionate]	1.91
2) CC[C@@H]([C@H](C)O)n1ncn(-c2ccc(N3CCN(c4ccc(OC[C@@H]5CO[C@@](Cn6cncn6)(c6ccc(F)cc6F)C5)cc4)CC3)cc2)c1=O [Posaconazole]	8.9
3) CCOC(=O)C1=C(C)NC(C)=C(C(=O)OC)C1c1cccc([N+](=O)[O-])c1 (stereo not given) [Nitrendipine]	85.6
4) Nc1ccc(/N=N/c2ccccc2)c(N)n1 [Phenazopyridine hydrochloride]	21.1
5) C[C@@H]1C[C@H]2[C@@H]3C[C@H](F)C4=CC(=O)C=C[C@]4(C)[C@@]3(F)[C@@H](O)C[C@]2(C)[C@@]1(O)C(=O)COC(=O)C(C)(C)C [Flumethasone pivalate]	106
6) CC1(C)O[C@@H]2C[C@H]3[C@@H]4C[C@H](F)C5=CC(=O)C=C[C@]5(C)[C@H]4[C@@H](O)C[C@]3(C)[C@]2(C(=O)CO)O1 [Flunisolide]	101

Next compound, growth yield to be filled in.
Please tell me: growth yield of COC(=O)C1=C(C)NC(C)=C(C(=O)OCC(C)C)C1c1ccccc1[N+](=O)[O-] (stereo not given) [Nisoldipine] , system Trichoderma virens ATCC 9645?
25.6

Entry source: the supplement of paper PMC8007513
